assayed-target: Small ubiquitin-related modifier 1 (Homo sapiens)
Sequence (P63165 whole entry): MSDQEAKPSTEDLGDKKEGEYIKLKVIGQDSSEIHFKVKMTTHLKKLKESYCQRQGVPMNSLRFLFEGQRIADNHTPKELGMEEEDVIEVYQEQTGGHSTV
test-summary: SUMO1 protein-protein binding blockers, potency – biochemical, FRET, dose response (AID 624383)
Assay type: functional
measurement-setup: read-out: IC50_Mean
The source made the active and inactive calls. No stated cut-off is given here; in the data, active = IC50 of 20 µM or less and inactive = more.
Please reply with one of these outcomes: active, inactive

QUERY: Hey, what did the test say about CCN1C(=O)/C(=C\c2ccc(-c3ccc([N+](=O)[O-])cc3OC)o2)S/C1=N\c1cccc(C(=O)O)c1 ?
RESULT: inactive

QUERY: Hey, what did the test say about Cc1ccc(S(=O)(=O)N2[C@@H](c3ccc(C(C)(C)C)cc3)C(C(=O)O)=CC[C@H]2c2ccc(Cl)c(Cl)c2)cc1 ?
RESULT: active

QUERY: Hey, what did the test say about O=C(O)C1=CCC=CC1C(=O)O (centres undefined) ?
RESULT: active

QUERY: Hey, what did the test say about Cc1cc(C)c2c(=N)c3ccccc3n(CCCCCCCCn3c4ccccc4c(=N)c4c(C)cc(C)nc43)c2n1 ?
RESULT: active
